Ref: patent US6930131B2

Given Smiles: O=S(=O)(Nc1cccc(CCOCc2ccc(C3CCCCC3)cc2)c1)C(F)(F)F
melting point: 90 to 92 °C

Given Smiles: COc1ccc(-c2cc(COCCc3cccc(NS(=O)(=O)C(F)(F)F)c3)ccc2F)cc1
melting point: 70 to 71 °C

Given Smiles: COc1cc(COCCc2cccc(NS(=O)(=O)C(F)(F)F)c2)ccc1-c1ccc(Cl)cc1
melting point: 88 to 90 °C

Given Smiles: COc1ccc(-c2ccc(COCCc3cccc(NS(=O)(=O)C(F)(F)F)c3)c(F)c2)cc1
melting point: 82 to 84 °C

Given Smiles: O=S(=O)(Nc1cccc(CCOCc2cccc(OCc3ccccc3)c2)c1)C(F)(F)F
melting point: 62 to 63 °C
